Taken from the nanobody polyreactivity screen of Harvey et al. (2022).

- MEASUREMENT_DESCRIPTION: yeast display, Sf9 membrane polyspecificity reagent, FACS + sequencing; frameworks hold sequencing errors
VALUE_TYPE: polyreactivity (PSR sort gate)

Please review the following examples before continuing.
SEQUENCE_CONTENT	VALUE_TYPE	EXPERIMENTAL_VALUE
QVHLVESGGGLVQAGGSLRLSCAASGSIFGPYMGWYRQAPGKERELVASVVSTYYADSVKGRFTISRDNAKNTVYLQMNSLKPEYTAVYYCNTQDTKNKSSVFVPSDYWGQGTQVTVSS	polyreactivity (PSR sort gate)	low polyreactivity
QVQLVESGGGLVQAGGSLRLSCPDSAFTFSLYGMGWYRQAPGKEREMVAAIRSGGSTNYADSVKGRFTISRDNAKNTVYLQMNSVKPEDTAVYVCATDIHSVHNNRDKHDYDYWGQGTQVTVSS	polyreactivity (PSR sort gate)	low polyreactivity
QVQLVESGGGLVKAGGSLSLSCAASGFIFVNNVMGWYRQAPGKERELVAAISRRGGSTYYADSVKGRFTISRDNAKNTVYLQMNSLKPEDTAVYYCARRGPDFSWKYDYWGQGTQVTVSS	polyreactivity (PSR sort gate)	high polyreactivity
QVQLVESGGGLVQAGGSLRLSCAASGSIFYAYTMGWYRQAPGKERELVASITKSGGSTYYADSVKGRFTISRDNAKNTVYLQMNSLKPEDTAVYYCAAAFNRYGTTSYWYRHYYWGQGTQVTVSS	polyreactivity (PSR sort gate)	high polyreactivity
QVQLVESGGGLVQAGGGLRLSCAASGRTFTYNAMGWYRQAPGKERELVAAITYDGGGTYADSVKGRFTISRDNAKNTVYLQMNSMKPEDSAVYYCNKGPDPGSFYDYWGQGTQVTVSS	polyreactivity (PSR sort gate)	low polyreactivity

Give polyreactivity (PSR sort gate) for all sequences that follow.
1. QVQLVESGGGLVQAGGSLRLSCAASGIISYPTVMGWYRQAPGKERELVPAITSGGRTKYADSVKGRFTISRDNAKNTVYLQMNSLKPEDTAVYYCAARTVYWQSWSQFWGYNYWGQGTQVTVSS
2. QVQIVESGGGLVPAGCSLRLICAASGFTYALYAMGWYRQAPGKETELVAANTYRGGSTYDADSVKWRFTISRDNAKNTVYLQLISLKPEDTAVYYCNAGGLWFPGVPDYDYWVQGTQVTVSS
3. QVQLVESGGGLVQAGGSLRLSCAASGIIFYVNDMGWYREAPGKVRELVADISGGTSTNYADSVKGRFTISRDNAKNTVYLQMNSLKPEDTAVYYCATAFIVPFPGSDYWGQGTQVTVSS
4. QVQLVESGAGLVQAGGRIRLTCAASRSILRGYAMGWYRQAPGKERELVAAITWNGGSTYYADSVKGRFTISRDNANNTVYLHMISLKPEDTAVYYFNRAIGPYSYPDNYWGQGTQVTVSS

Output line:
1. low polyreactivity
2. high polyreactivity
3. low polyreactivity
4. high polyreactivity

* * *

- MEASUREMENT_DESCRIPTION: yeast display, Sf9 membrane polyspecificity reagent, FACS + sequencing; frameworks hold sequencing errors
VALUE_TYPE: polyreactivity (PSR sort gate)

SEQUENCE_CONTENT	EXPERIMENTAL_VALUE
QVQLVESGGGLVQAGGSLRLSCAASGSIFVEYAMGWYRQAPGKERELVSAIRWRGGSTNYADSVKGRFTISRDTAKNTVYLQMNSLNREDTAVYYCNARHPASGDLYRMDYWGQGTQVTVSS	low polyreactivity
QVQLVESGGGLVQAGGSLRLSCAASGRTFDGNAMGWYRQAPGKEGEFVATISTDGGSTHYADSVKGRFTISRDNAKNTVYLQMNSLKPEDTAVYYCAADTPWYDDNYDYWGQGTQVTVSS	low polyreactivity
QVQLVESGGGLVQAGGSLRLSCAASGRIFDGNALGWYRKAPGKERELFAAISWTGGSTYYADSVKGRYTISRDNAKNTVYLQLNSLKPEDTAVYYCAADSGWWLDQLSWYDYWGQGTQVTVSS	low polyreactivity

* * *

- MEASUREMENT_DESCRIPTION: yeast display, Sf9 membrane polyspecificity reagent, FACS + sequencing; frameworks hold sequencing errors
VALUE_TYPE: polyreactivity (PSR sort gate)

Please review the following examples before continuing.
SEQUENCE_CONTENT	VALUE_TYPE	EXPERIMENTAL_VALUE
QVQLVESGGGLVQAGGSLRLSCAASGSIFLVNAMGWYRQAPGKERELVAAITYGGDSTYYADSVKGRFTISRDNAKNTVYLQMNSLKPEDTAVYYCAADAWVGWHDEYDYWGQGTQVTVSS	polyreactivity (PSR sort gate)	low polyreactivity
QVQLVESGGGLVQAGGSLRLSCAASGTIFYDNDMGLYRQAPGKERELVAAISWSASDTYYADSVKGRFTISRDNAKNTVFLQMMSLKPEDTAVYYCNAEVYEWYVVYSALDYWGQVTQVTVSS	polyreactivity (PSR sort gate)	low polyreactivity
QVQLVESGRGLVQAGGSLRLSCAASGRIFDHYAMGWYRQAPGKERELVAAITWSGANTYYADSVKGRFTISRDNAKNTVYLQMNSLKPEDTAVYYCAAYNGAHSHFGYWGQGTQVTVSS	polyreactivity (PSR sort gate)	low polyreactivity
QVQLVESGGGLVQAGGSLLLSCAASGLIFSGYAMGWYRQAPGKERELVAAISRTVGTTYYADSVKGRFTISRDNGKNPVYLQMNSLKPEDTAVYYCAARGRATLYDYWGQGTQVTVSS	polyreactivity (PSR sort gate)	high polyreactivity

API: the following record is the query input.
Input line: Note down polyreactivity (PSR sort gate) recorded for QVQLVESGGGLVQAGGSLRLSCAASGRTFKFYAMGWYRQAPGKERELVARITSNSGSTYYADTVKVRYTISRDNAKNTVYLQMNSLKPEDTAVYYCAARGRYRQFNYWGQGTQVTVSS
Output line: high polyreactivity

* * *

- MEASUREMENT_DESCRIPTION: yeast display, Sf9 membrane polyspecificity reagent, FACS + sequencing; frameworks hold sequencing errors
VALUE_TYPE: polyreactivity (PSR sort gate)

Please review the following examples before continuing.
SEQUENCE_CONTENT	polyreactivity (PSR sort gate)
QVQLVESGGGLVQAGGSLRLSCAASGSTFDSYAMGWYRQAPGKERELVASITSNDGSTSYADSVKGRFTISRDNAKNTVYLQMNSLKPEDTAVYYCATTFQYYWFSLYDYWGQGTQVTVSS	low polyreactivity
QVQLVESGGGLVQAGGSLRLSCAASGSIFSPYAMGWYRQAPGKERELVAAIRWGGGCTYADSVKGRFTISRDNAKNTVYLQMNSVIPEDSAVYYCAARRRSLRGYDYWGQGTQVTVSS	high polyreactivity
QVQLVESGGGLVQAGGSLRLSCAASGRIFSGYVMGWYRQAPGKERELVAAISRSGGSTYYADSVKGRFTISRDNAKNTVYLQMNSLKPEDTAVYYCNAYYRYFRSIYDSWGQGTQVTVSS	high polyreactivity
QVQLVESGGGLVQAGGSLRLSCAASGITFGDYAMGWYRQAPGKERELVAAISKRGGSTYYAESVKGRFTISRDNAKNTVYLQMNSRNPEDTAVYYCAADYYSKAYYYWGQGTQVTVSS	high polyreactivity
QVQLVVSGGGLVQPGGSLRLSCAASGRTFPYYAMGWYIQAPGKERELVARITGSGTSTNYADSVKGRFTISRDKSKNTVYLKMNSLKPEDTAVYYCAAPKYGSYYIADYEYWGQGTHVTVSS	low polyreactivity

Give polyreactivity (PSR sort gate) for all sequences that follow.
1. QVQLVESGGGLVQAGGSLRLSCAASGSTSVKYAMGWYRQAPGKERELVAAIRKRGDSTYYADSVKGRFTISRDNAKNTVYLQMNSLKPEDTAVYYCAAQYLRGRGYWGQGTQVTVSA
2. QVQLVESGGGLVQAGGSLRLSSAASGSTIRTNAMGWYRQAPGKATELVAAISKSGGRTYYADSVKGRFTISRDNAKNTVYFQMNSLKPEDTAVYYCNVPRDVVPKVRAHDYWGQGTQVTVSS
3. QVQLVESGGGLVQAGGRLRISCAASGSTFYFNAMGWYRQAPGKERELVAAITRGGSTYADSVKGRFTISRDNAKYTVYLQMNSMKPEDTAVYYCNAVYGVYDFIYWGQGTQVTVSS
4. QVQLVESGGGLVQAGGSLRLSCAASGFTSKTNAMGWYRQAPGKERELVAGITRTGGSTYYADSVKGRFTISRDNAKNTVYLQMNSLKPEDTAVYYCAREYGDGYEYWGQGTQVTVSS
5. QVQLVESGGGLLQAGGSLRLSCAASGFSFLCYAMGWYRQEPRKERELVASITYGGDSTYYADSVKGRFTISRDNAKNTVYLQMNSLKPEDTAGYYCNARPSYWWGGRLYGYWGQGTQVTVSS

Output line:
low polyreactivity
high polyreactivity
low polyreactivity
low polyreactivity
high polyreactivity

Give polyreactivity (PSR sort gate) for all sequences that follow.
1. QVQLVESGGGLVQAGGSLRLSCAASGRIFYTYAMGWYRRAPGKERELVAAIRISGVRTYYADSVKGRFTISRDNAKNTVYLQMNSLKPEDTAVYYCAADSYGDRMDYWGQGTQVTVSS
2. QVQLVESGGGLVQAGGSLRLSCAASGSTSPYYDRGWSRQAPGKERELVAAITSGGSTNYADSVKGRFTISRDYAKNSVYLQMNSLKPEDTAVYYCATDWSDDLWTWYYYWGQGTQVTVSS
3. QVQLVESGGGLVQAGGSLRLSCAASGRIFQYNAMGWYRQAPGKERALVAAIRRGGGSTYYADSVKGRFTISRDNAKNTVYLQMNSLKPEDTAVYYCAARRKRVSFYPEYDYWGQGTQVTVSS
4. QVQLVESGGCLVQAGGSLRLSCAASGSTFTTNAMGWYIQAPGKERELVAAISWSGTTTYYADSVKGRFTISRDNAKNTGYLQMNSLKPEDTAVYYCAAQVVSGTVAYLDFGYWGQGTQVTVSS
5. QVQLEESGGGLVQAGGSLRLTCAASGRIFHSNDMGWNRQAPGKERELVAAITKVGGTNYADSVKGRFTISRDNAKNTVSLQMNSLKPEDTAVYYCAAAFYLYSPISGVYLSYSEYDYWGQGSQVTVSS
6. QVQLEESGGGLDQAGGSLRLSCAASGRTLATYAMGWYRQAPGKERELVAAISSSGTRTYYADSVKGRFTISRDNAKNTVYFQMNSLNPEDTAVYYCNAGPGYDYWGQGTQLTVSS
7. QVQLVESGGGLVQAGGSLRLSCAASGSIFSYYALGWYRQAPGKERELVAAISYSGGTTYYADSVKGRFTISRDNAKNTVYLQMNSLKPEDTAVYYCAAQWWWNRPVRYEYWGQGTQVTVSS
8. QVQLVESGGGLVQAGGSLRLSSAASGSIFRSNAMGWYRQAHGKERELVAAITSGTRTYYADSVKGRFTISRDNAKNTVYLQMNSLKPEDTAVFYCATKGSKYVRGYWGQGTQVTVSS

Output line:
1: high polyreactivity; 2: high polyreactivity; 3: low polyreactivity; 4: low polyreactivity; 5: high polyreactivity; 6: high polyreactivity; 7: low polyreactivity; 8: high polyreactivity

Give polyreactivity (PSR sort gate) for all sequences that follow.
1. QVQLVESGGGLVQAGGSLRLSCAASGRTFGNYAMGWYRQAPGKERELVADITRRGGSTSYADSVKGRFTISRDNAKNTVYLQMNSLKPEDTAVYYCNADSYLPAIRYDYWGQGTQVTVSS
2. QDQLVESGGGLDQAGGSLRLSCAASGRIFQKYAMACYRQAPGKERELVAAISSGDSTYADSVKGRFTISRDNAKNTVYLQMNSLKPEDTAVYYCAADSHYQEDFRIQYDYWGQGTQVTVSS
3. QVQLVESGGGLVQAGGSLRLSCAASGIIFRGYAMGWYRQAPGKERELVAAITYSGDSTYYADSVKGRFTSSRDNAKNTVYLQMNSLKPEESAVYYCNADVVDGGLAYDYWGQGTQVSVSS

Output line:
low polyreactivity
low polyreactivity
low polyreactivity
